Target: topoisomerase Type I (Bos taurus, UniProt F1MN93)
Sequence (F1MN93 1-767): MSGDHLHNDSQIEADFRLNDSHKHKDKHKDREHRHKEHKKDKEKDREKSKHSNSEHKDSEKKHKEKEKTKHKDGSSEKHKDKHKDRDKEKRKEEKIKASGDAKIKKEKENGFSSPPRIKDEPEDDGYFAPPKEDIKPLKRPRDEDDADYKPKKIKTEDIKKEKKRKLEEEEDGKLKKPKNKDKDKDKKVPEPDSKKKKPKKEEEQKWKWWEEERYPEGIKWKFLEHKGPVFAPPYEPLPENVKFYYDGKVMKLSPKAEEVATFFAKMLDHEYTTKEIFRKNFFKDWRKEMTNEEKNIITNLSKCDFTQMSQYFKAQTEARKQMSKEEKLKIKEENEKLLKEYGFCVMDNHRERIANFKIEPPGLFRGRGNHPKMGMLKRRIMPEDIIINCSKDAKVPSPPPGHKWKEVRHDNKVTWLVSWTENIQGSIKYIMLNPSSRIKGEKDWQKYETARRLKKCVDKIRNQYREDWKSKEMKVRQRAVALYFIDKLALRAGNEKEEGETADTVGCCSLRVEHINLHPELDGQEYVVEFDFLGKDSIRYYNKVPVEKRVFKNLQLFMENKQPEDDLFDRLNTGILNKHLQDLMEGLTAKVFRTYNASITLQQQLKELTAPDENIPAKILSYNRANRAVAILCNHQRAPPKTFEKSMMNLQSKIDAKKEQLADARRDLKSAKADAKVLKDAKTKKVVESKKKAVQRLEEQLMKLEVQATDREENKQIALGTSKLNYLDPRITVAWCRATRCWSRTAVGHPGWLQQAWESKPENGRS
Assay: Cleavable Complex in vitro Assay (topoisomerase Type I inhibitory activity)
Type: biochemical
Conditions: Cleavable Complex Assay; read-out: Relative IC50 (concentration at which 50% of the DNA substrate has been captured by topoisomerase I)
PROPERTY MEASURED: IC50

CC[C@@]1(O)C(=O)OCc2c1cc1n(c2=O)Cc2c-1nc1cc3c(cc1c2CN1CCN(C)CC1)OCCO3	< 500 nM

Now let's try a different one.
input: Suppose we examine the compound CCC1(O)C(=O)OCc2c1cc1n(c2=O)Cc2c-1nc1cc3c(cc1c2CN1CCN(C)CC1)OCCO3 (racemic) ; what IC50 value has been reported?
output: 500 to 1000 nM
